Test: Surface tension, Kruss surface tensiometer
Format: physicochemical
Settings: 0.1 wt % in 0.005M NaCl water
Experimental: Surface tension was measured using a Kruss surface tensiometer, with a sand blasted platinum blade as the sensor. Solutions of the various components were prepared at 0.1 wt % in 0.005M NaCl water (deionized), as an equilibrium aid.
Measured Surface Tension of individual entries
Form entry: value (mN/m) — number only.

Worked examples follow.
C[Si](C)(C)CC[Si](C)(C)CCCOCCOCCOCCOCCOCCOCCOCCOCCOCCOCCOCCO : 26.7
C[Si](C)(C)C[Si](C)(C)CCCOCCOCCOCCOCCOCCOCCOCCOCCOCCOCCOCCO : 27.7
C[Si](C)(C)CC[Si](C)(C)CCCOCCOCCOCCOCCO : 22.7

Let us move to another entry and its Surface Tension.
Problem: Field request: Surface Tension | item: "C[Si](C)(C)C[Si](C)(C)CCCOCCOCCOCCOCCO"
Solution: 22.5

====

experiment: Spreading of 10 μL droplet on polystyrene Petri dishes; type: physicochemical; conditions: 0.5% surfactant, 30 seconds
Measured Spread Diameter of individual entries
Form entry: value (mm) — number only.

Worked examples follow.
C[Si](C)(C)C[Si](C)(C)CCCOCCOCCOCCOCCOCCOCCOCCOCCOCCOCCOCCO : 7
C[Si](C)(C)C[Si](C)(C)CCCOCCOCCOCCOCCO : 47

Problem: Field request: Spread Diameter | item: "C[Si](C)(C)CC[Si](C)(C)CCCOCCOCCOCCOCCOCCOCCOCCOCCOCCOCCOCCO"
Solution: 7

Problem: Field request: Spread Diameter | item: "C[Si](C)(C)CC[Si](C)(C)CCCOCCOCCOCCOCCO"
Solution: 49

====

assay: Spreading of 10 μL droplet on polystyrene Petri dishes; format: physicochemical; settings: 0.1% surfactant, 30 seconds
endpointName: Spread Diameter (mm)
Form entry: value (mm) — number only.

Worked examples follow.
C[Si](C)(C)CC[Si](C)(C)CCCOCCOCCOCCOCCO : 42
C[Si](C)(C)C[Si](C)(C)CCCOCCOCCOCCOCCOCCOCCOCCOCCOCCOCCOCCO : 7
C[Si](C)(C)CC[Si](C)(C)CCCOCCOCCOCCOCCOCCOCCOCCOCCOCCOCCOCCO : 7

Let us move to another entry and its Spread Diameter.
Problem: Field request: Spread Diameter | item: "C[Si](C)(C)C[Si](C)(C)CCCOCCOCCOCCOCCO"
Solution: 45
